Entry source: patent US20250177363A1

Consider the following compounds; for each one, report its pIC50.
Biological target: human TLR7 (Homo sapiens)
Sequence (Q9NYK1 27-1049): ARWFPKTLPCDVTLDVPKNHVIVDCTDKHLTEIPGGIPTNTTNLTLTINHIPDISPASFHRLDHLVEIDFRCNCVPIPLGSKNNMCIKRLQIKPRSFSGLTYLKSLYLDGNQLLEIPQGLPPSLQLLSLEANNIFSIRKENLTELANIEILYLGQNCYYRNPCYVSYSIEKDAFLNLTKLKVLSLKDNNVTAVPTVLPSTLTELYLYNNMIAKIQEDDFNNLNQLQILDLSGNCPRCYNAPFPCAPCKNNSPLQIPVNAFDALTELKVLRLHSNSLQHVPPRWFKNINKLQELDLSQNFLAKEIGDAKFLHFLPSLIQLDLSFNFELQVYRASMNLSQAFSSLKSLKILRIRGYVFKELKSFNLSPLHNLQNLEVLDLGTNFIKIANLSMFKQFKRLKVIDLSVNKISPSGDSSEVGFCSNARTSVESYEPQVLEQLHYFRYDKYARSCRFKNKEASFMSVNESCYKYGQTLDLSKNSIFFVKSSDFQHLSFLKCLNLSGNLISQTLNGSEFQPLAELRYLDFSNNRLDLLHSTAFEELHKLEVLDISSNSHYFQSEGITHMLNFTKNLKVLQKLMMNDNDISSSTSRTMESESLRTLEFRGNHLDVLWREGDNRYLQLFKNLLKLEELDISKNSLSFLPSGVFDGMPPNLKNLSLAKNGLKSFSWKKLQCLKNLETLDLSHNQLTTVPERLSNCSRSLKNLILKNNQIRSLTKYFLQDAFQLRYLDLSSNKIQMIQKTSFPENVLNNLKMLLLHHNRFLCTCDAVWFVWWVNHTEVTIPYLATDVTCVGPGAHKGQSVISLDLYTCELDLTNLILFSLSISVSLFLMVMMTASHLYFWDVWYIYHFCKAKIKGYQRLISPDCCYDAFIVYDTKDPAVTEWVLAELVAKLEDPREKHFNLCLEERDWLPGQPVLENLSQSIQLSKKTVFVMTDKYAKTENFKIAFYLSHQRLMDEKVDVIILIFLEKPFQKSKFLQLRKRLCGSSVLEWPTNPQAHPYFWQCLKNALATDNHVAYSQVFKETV
Test: TLR7 inhibition reporter assay (HEK-Blue, SEAP)
Details: HEK-Blue cells overexpressing human TLR7, ligand gardiquimod 2.5 μM, 22 hour incubation
pIC50: −log10 of the molar value.

Return reported pIC50; argument: Cn1c(-c2ccc(S(C)(=O)=O)cc2)nc2ncc(C3CCN(C4CCN(C5CC5)CC4)CC3)cc21 [Example 16] < 4.60

Return reported pIC50; argument: Cc1cc(-c2ccc(N3CCN(CC(C)C)CC3)cc2)nc2c1nc(-c1ccc(S(C)(=O)=O)cc1)n2C [Example 8] < 4.30

Return reported pIC50; argument: CC(C)N1CCC(N2CCC(c3cnc4nc(-c5ccc(S(C)(=O)=O)cc5)n(C)c4c3)CC2)CC1 [Example 14] < 4.30
